Data origin, for the record: ChEMBL document CHEMBL1817626

tested on: Mycobacterium tuberculosis; assay: microbe, parasite or virus in culture; details: H37Rv, 168 h
Observable: log10 of MIC (log10 of the value in µg/mL)

[[record]]
molecule = "CCCCCNC(=O)NC1C2CC3CC(C2)CC1C3 (stereo unspecified)"
recorded_number = -0.41

[[record]]
molecule = "CCOCCNC(=O)NC12CC3CC(CC(C3)C1)C2"
recorded_number = 1.70

[[record]]
molecule = "N#Cc1ccc(NC(=O)NC2C3CC4CC(C3)CC2C4)cc1 (stereo unspecified)"
recorded_number = -0.40

[[record]]
molecule = "CC1C(NC(=O)Nc2ccc(F)c(F)c2F)CC2CC1C2(C)C (stereo unspecified)"
recorded_number = -1.70

[[record]]
molecule = "Cc1c(Cl)cccc1NC(=O)NC1C2CC3CC(C2)CC1C3 (stereo unspecified)"
recorded_number = 0.20

[[record]]
molecule = "CC(C)(C)NC(=O)NC1C2CC3CC(C2)CC1C3 (stereo unspecified)"
recorded_number = 1.10

